Reference source for all entries: BindingDB's records for doi:10.1111/j.1747-0285.2012.01328.x

target: HIV-1 protease (Human immunodeficiency virus, UniProt O90785)
Sequence (O90785 whole entry): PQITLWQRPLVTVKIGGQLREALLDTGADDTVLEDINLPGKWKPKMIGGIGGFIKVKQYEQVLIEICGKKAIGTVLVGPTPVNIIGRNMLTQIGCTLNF
Endpoint Label: Ki (nM)
Quick reminder: number only, in nM, skip the unit.

Query: Ki lookup needed for Cc1c(O)cccc1C(=O)N[C@@H](Cc1ccccc1)[C@@H](O)C[C@H](Cc1ccccc1)NC(=O)OC1CCOC1 (stereo partly specified) , thanks.
Response: 0.32
